Attribution: PubChem BioAssay (NCI)

# protocol-summary: NCI Yeast Anticancer Drug Screen. Data for the cln2 rad14 strain (AID 165);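 note: 0% = growth equal to vehicle treated cultures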
# test-parameters: S. cerevisiae cln2 rad14 strain, at 50.0 µM
This is part of a sample that, as a whole, favours compounds with a hit. Of some 79,000 tested, about 15% had one in any assay. Calls of active or inactive are those of the source. Cut-off read from the data, not from the text of the source: active = growth inhibition above about 70%; inactive = the rest.
Use one of these outcomes when replying: active, inactive

Exercise: Call for entry CC[N-]c1nnnn1CC.[Au+].c1ccc([PH+](c2ccccc2)c2ccccc2)cc1 :
Solution: active

Exercise: Call for entry O=c1[nH]cnc2[nH]cc(CN3CCCCC3)c12 :
Solution: inactive

Exercise: Call for entry CCN(CC)C1CC(O[C@H]2C[C@](O)(C(=O)CO)Cc3c(O)c4c(c(O)c32)C(=O)c2c(OC)cccc2C4=O)OC(C)C1O (stereo not given in full) :
Solution: active

Exercise: Call for entry CCC[CH2][Sn]([Cl])([CH2]Cl)[CH2]CCC :
Solution: active

Exercise: Call for entry C[C@]12CC/C(=N\NC(=O)c3ccncc3)C[C@@H]1CC[C@@H]1[C@@H]2CC[C@]2(C)[C@@H](O)CC[C@@H]12 :
Solution: inactive

Exercise: Call for entry CCCCCCCCCCCCC(=O)[O][Hg][c]1ccccc1 :
Solution: active

Exercise: Call for entry Clc1ccc(-c2cc(=[N+]3CC[N+](=c4cc(-c5ccc(Cl)cc5)ss4)CC3)ss2)cc1 :
Solution: active

Exercise: Call for entry COc1cccc(C(Cc2ccc(N3C(N)=NC(N)=NC3(C)C)cc2)C(=O)Nc2ccc(S(=O)(=O)F)cc2)c1 (stereo not given) :
Solution: active

Exercise: Call for entry S=P(S)(Oc1ccccc1)Oc1ccccc1 :
Solution: active

Exercise: Call for entry COc1cc(CC(=O)N2CC2)cc(OC)c1OC :
Solution: inactive

* * *

# protocol-summary: NCI Yeast Anticancer Drug Screen. Data for the rad50 strain (AID 155);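 note: 0% = growth of vehicle-only cultures of the same strain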
# test-parameters: S. cerevisiae rad50 strain growth inhibition; at 50.0 µM (retest, dose inferred, filed as 5.0); hits give high values
The panel holds about 79,000 compounds, 15% with a hit somewhere; the sample as a whole holds those more often.
Field: growth inhibition. Provide a value for each of the molecules that follow.
Hi! Could you send only the number? It should be in %, unit omitted.

Just so you know, measured growth inhibition for O=[N+]([O-])c1ccc(-n2nc3ccc4c(no[n+]4[O-])c3[n+]2[O-])c([N+](=O)[O-])c1 came out at 98

Just so you know, measured growth inhibition for CC12CCC(O)CC1=CCC1C2CCC2(C)C(NC(=O)C3CCCN3C(=O)CN(CCCl)CCCl)CCC12 (stereo unspecified) came out at 56

Just so you know, measured growth inhibition for O=[N+]([O-])c1cc(S(=O)(=O)F)ccc1Cl came out at 57

Just so you know, measured growth inhibition for CC(=O)OC1C(O)C(C)OC(OC2C(OC(=O)C3CCC4C(C3)OC3(CC(OC(=O)/C=C/c5ccccc5)C(C)CO3)C43CO3)OC(C)C(O)C2OC(C)=O)C1O (stereo unspecified) came out at 96

Just so you know, measured growth inhibition for NN1CCCC1C(=O)O (stereo unspecified) came out at 2

Just so you know, measured growth inhibition for O=[N+]([O-])O.O=[N+]([O-])O.[NH-]C1CCCCC1[NH-].[Pt+2] (stereo unspecified) came out at 96

Just so you know, measured growth inhibition for COc1cc(C(c2c(O)c3ccccc3oc2=O)c2c(O)c3ccccc3oc2=O)cc(OC)c1O came out at 20

Just so you know, measured growth inhibition for [Cl][Sn]([Cl])([c]1ccccc1)[c]1ccccc1.c1ccncc1.c1ccncc1 came out at 97

Just so you know, measured growth inhibition for Cn1c2cccc(=O)c-2nc2ccccc21 came out at 85

Just so you know, measured growth inhibition for CC(C)c1c(O)c(O)c2c(c1O)C(=O)C(O)=C1C(C)(C)CCC[C@@]12C came out at 95

Just so you know, measured growth inhibition for CCOC(=O)C1([Se]c2ccccc2)CCCC1=O (stereo unspecified) came out at 63

Just so you know, measured growth inhibition for C[N+](C)=C1C=CC(=C2C=CSC=C2)C=C1 came out at 45

Just so you know, measured growth inhibition for CCC[CH2][Sn]([Cl])([CH2]C)[O][Sn]([Cl])([CH2]C)[CH2]CCC (stereo unspecified) came out at 98

Just so you know, measured growth inhibition for ClCCN(CCCl)c1ccc(CNCCCNCc2ccc(N(CCCl)CCCl)cc2)cc1 came out at 57

Just so you know, measured growth inhibition for Cc1ccc2c(c1)C1(C)c3cc(C)ccc3SP1S2 (stereo unspecified) came out at 51

Just so you know, measured growth inhibition for O=C(O)CCCc1cc(I)c(N(CCCl)CCCl)c(I)c1 came out at 98

Just so you know, measured growth inhibition for O=[N+]([O-])c1ccc(N2CCC(CCCC3CCN(c4ccc([N+](=O)[O-])cc4[N+](=O)[O-])CC3)CC2)c([N+](=O)[O-])c1 came out at 99

Just so you know, measured growth inhibition for COc1cc([C@@H]2c3cc4c(cc3C[C@@H]3COC(=O)C32)OCO4)cc(OC)c1O (stereo partly specified) came out at 96

Just so you know, measured growth inhibition for COc1ccccc1[As]=O (stereo unspecified) came out at 99

Just so you know, measured growth inhibition for CC1CN1C1=C(F)C(=O)C(N2CC2C)=C(F)C1=O (stereo unspecified) came out at 99

Just so you know, measured growth inhibition for COc1cc(O)c2c(O)c3c(c4c2c1[C@]1(C4)C(C)=CCCC1(C)C)[C@H](O)[C@@]1(O)CC(=O)C(C(N)=O)=C(O)[C@@]1(O)C3=O came out at 97

Just so you know, measured growth inhibition for CC[n+]1c(/C=C/c2ccc(N(CCCl)CCCl)cc2)ccc2cc(I)ccc21 came out at 99

Just so you know, measured growth inhibition for CCCCCCCCCCCCCCCC[N+](C)(C)CCBr came out at 98

Just so you know, measured growth inhibition for O=C1C2CC(Cl)C(SSC3CC4C(=O)N(SC(Cl)(Cl)C(Cl)Cl)C(=O)C4CC3Cl)CC2C(=O)N1SC(Cl)(Cl)C(Cl)Cl (stereo unspecified) came out at 95

Just so you know, measured growth inhibition for C[N-]c1nnnn1C.[Au+].c1ccc([PH+](c2ccccc2)c2ccccc2)cc1 came out at 97

Just so you know, measured growth inhibition for O=C(Cl)c1ccccn1 came out at 98

Just so you know, measured growth inhibition for CC(=O)[O][Hg][c]1cc2c(cc1O)Cc1cc([N+](=O)[O-])ccc1-2 came out at 98

Just so you know, measured growth inhibition for CCN(CCCl)CCCCNc1c2ccccc2nc2ccc(OC)cc12 came out at 46

Just so you know, measured growth inhibition for CCN(Cc1ccccc1)CC(O)c1ccc(Cl)c(Cl)c1 (stereo unspecified) came out at 99

Just so you know, measured growth inhibition for CN(C)CCN(C)P12(Oc3ccccc3O1)Oc1c(Cl)c(Cl)c(Cl)c(Cl)c1O2 came out at 6

Just so you know, measured growth inhibition for O=Cc1ccc(C(F)(F)F)cc1.[C-]#[O+].[C-]#[O+].[C-]#[O+].[Cr] came out at 75

Just so you know, measured growth inhibition for CC[C@@]1(O)C(=O)OCc2c1cc1n(c2=O)Cc2cc3c(NC(=O)CN)cccc3nc2-1 came out at 72

Just so you know, measured growth inhibition for C=CCC[CH2][Sn]([c]1ccccc1)([c]1ccccc1)[c]1ccccc1 came out at 93

Just so you know, measured growth inhibition for CC(=O)C1C2c3ccccc3C(c3ccccc32)C1C (stereo unspecified) came out at 55

Just so you know, measured growth inhibition for C[CH2][Sn]([CH2]C)([CH2]C)[O]C(=O)CO came out at 98

Just so you know, measured growth inhibition for CCc1ccc([O-])c(C=NCCCN(C)CCCN=Cc2cc(C)ccc2[O-])c1.[Co+3].[N-]=[N+]=[N-] came out at 7

Just so you know, measured growth inhibition for C=Cc1c2ccccc2cc2ccccc12 came out at 82

Just so you know, measured growth inhibition for CN(CCC(N)CC(=O)NC1C=CC(n2ccc(N)nc2=O)OC1C(=O)O)C(=N)N (stereo unspecified) came out at 95

Just so you know, measured growth inhibition for O=[N+]([O-])O.[NH-]C1CCCCC1[NH-].[NH-]C1CCCCC1[NH-].[NH-]C1CCCCC1[NH-].[OH-].[OH-].[OH-].[Pt+4].[Pt+4].[Pt+4] (stereo unspecified) came out at 20

Just so you know, measured growth inhibition for Cc1c([N+](=O)[O-])oc2ccc3ccccc3c12 came out at 90

Just so you know, measured growth inhibition for NCCc1ccc(OCc2ccccc2)c(OCc2ccccc2)c1 came out at 90

* * *

# protocol-summary: NCI Yeast Anticancer Drug Screen. Data for the rad14 strain (AID 159);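 note: 0% = growth of vehicle-treated control cultures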
# test-parameters: S. cerevisiae rad14 strain growth inhibition; at 1.2 µM; hits give high values
About 79,000 compounds went through this panel and 15% of them were active in at least one assay; those are over-represented in the sample as a whole.
Field: growth inhibition. Provide a value for each of the compounds that follow.
Hi! Could you send only the number? It should be in %, unit omitted.

Just so you know, measured growth inhibition for C=CC[N+]12CN3CN(CN(C3)C1)C2 came out at -35

Just so you know, measured growth inhibition for CCC(=O)OC1CCn2c1nc1c2C(=O)C(C)=C(N2CC2)C1=O (centres undefined) came out at 8

Just so you know, measured growth inhibition for COC1CC(CC2CCC(C)C(C(C)C(=O)O)O2)OC2(OC(C)(C3CCC(C)(C4OC(C5OC(O)(CO)C(C)CC5C)CC4C)O3)CC2C)C1C (centres undefined) came out at 5

Just so you know, measured growth inhibition for COC(=O)C1C2c3ccccc3C(c3ccccc32)C1C(=O)OC (centres undefined) came out at 2
